Consider the following compounds; for each one, report its percent cells in S phase.
# Test system: HeLa
# testProtocol: percent cells in S phase; higher = more S arrest
# details: 10 µM; 20 h
Counter-ions that a name gives are not always drawn.
One number for each entry, in %.

- compound: "COc1ccc(C(=O)c2coc3ccc(OC)cc3c2=O)cc1 (hit class: G1-phase inhibitor)"
  valueUnits: "%"
  percent cells in S phase: 7.3
- compound: "C[C@@H]1CCC[C@H](C)N1NC(=O)c1ccc(Cl)c(S(N)(=O)=O)c1 [Clopamide] (hit class: G1-phase inhibitor)"
  valueUnits: "%"
  percent cells in S phase: 8.75

Hey, quick one: what's percent cells in S phase for each of these?
1. Cn1c(SCc2ccccc2)nc2ccccc2c1=O (hit class: S-phase inhibitor)
2. Cc1cc([N+](=O)[O-])ccc1NCc1ccc(F)c(F)c1 (hit class: G1-phase inhibitor)
3. COc1ccc(CSc2nncn2N)cc1 (hit class: S-phase inhibitor)

[reply]
1. 20.6
2. 9.44
3. 19.7

Hey, quick one: what's percent cells in S phase for each of these?
1. Cc1ccc(-c2cc(-c3ccccc3Cl)[nH]n2)c(O)c1 (hit class: G1-phase inhibitor)
2. CCN(CC)Cc1c(O)ccc2c(=O)c(-c3ccccc3)coc12 (hit class: S-phase inhibitor)
3. C[C@@H]1C[C@H]2[C@@H]3C[C@H](F)C4=CC(=O)C=C[C@]4(C)[C@@]3(Cl)[C@@H](O)C[C@]2(C)[C@H]1C(=O)COC(=O)C(C)(C)C [Clocortolone pivalate] (hit class: S-phase inhibitor)
4. Nc1ccn([C@H]2CC[C@@H](CO)O2)c(=O)n1 [Zalcitabine] (hit class: S-phase inhibitor)
5. O=C1c2c(O)ccc(O)c2C(=O)c2c(NCCNCCO)ccc(NCCNCCO)c21 [Mitoxantrone dihydrochloride] (hit class: G1-phase inhibitor)

[reply]
[7.81, 22.3, 23.2, 21.2, 6.2]
